Biological target: UniProt P15145
Sequence (P15145 1-963): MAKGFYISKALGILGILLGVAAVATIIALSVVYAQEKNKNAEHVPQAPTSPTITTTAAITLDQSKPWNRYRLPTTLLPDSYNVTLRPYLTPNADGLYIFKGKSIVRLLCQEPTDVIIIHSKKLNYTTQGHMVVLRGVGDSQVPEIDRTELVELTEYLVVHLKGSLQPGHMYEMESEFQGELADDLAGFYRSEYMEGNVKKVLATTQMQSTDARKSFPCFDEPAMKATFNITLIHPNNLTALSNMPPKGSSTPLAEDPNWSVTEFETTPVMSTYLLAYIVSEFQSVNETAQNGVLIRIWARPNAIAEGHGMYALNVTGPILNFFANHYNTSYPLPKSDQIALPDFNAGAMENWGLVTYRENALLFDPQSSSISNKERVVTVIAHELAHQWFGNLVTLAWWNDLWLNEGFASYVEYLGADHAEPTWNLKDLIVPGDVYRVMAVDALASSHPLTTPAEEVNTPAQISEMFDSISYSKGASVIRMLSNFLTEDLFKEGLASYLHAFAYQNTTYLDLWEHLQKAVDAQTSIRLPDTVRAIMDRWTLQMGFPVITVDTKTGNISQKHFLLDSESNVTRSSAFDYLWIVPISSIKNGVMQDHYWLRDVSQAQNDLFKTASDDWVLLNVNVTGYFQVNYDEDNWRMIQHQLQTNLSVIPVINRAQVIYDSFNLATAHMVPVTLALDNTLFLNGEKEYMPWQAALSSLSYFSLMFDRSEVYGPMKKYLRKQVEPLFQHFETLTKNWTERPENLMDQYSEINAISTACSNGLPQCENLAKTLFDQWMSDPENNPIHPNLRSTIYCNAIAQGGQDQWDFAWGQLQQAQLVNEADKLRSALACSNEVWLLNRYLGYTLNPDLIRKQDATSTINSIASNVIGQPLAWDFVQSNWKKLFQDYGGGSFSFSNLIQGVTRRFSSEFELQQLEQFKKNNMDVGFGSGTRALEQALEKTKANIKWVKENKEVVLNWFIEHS
Experiment: In vitro LAP cleavage assay
Assay type: in vitro ADME
readout: Cleavage by LAP (in words)

COc1ccc(/C=C/c2cc(OC)c(OC)c(OC)c2)c(NC(=O)C(N)CO)c1.Cl (stereo in doubt)	effectively cleaved
COc1ccc(/C=C\c2cc(OC)c(OC)c(OC)c2)cc1NC(=O)[C@@H](N)CO.Cl [AVE8062, reference compound]	effectively cleaved
COc1ccc(/C=C\c2cc(OC)c(OC)c(OC)c2)c(NC(=O)[C@@H](N)CO)c1.Cl	effectively cleaved

----------
In this section, each of the compounds is paired with its reported % Cleavage by LAP.
Target: LAP (from porcine kidney microsomes) (Sus scrofa)
Assay: In vitro LAP cleavage assay
Type: in vitro ADME
Details: area ratio of parent drug and prodrug (HPLC); pH 7.2, 37 °C
Number only, in %; omit the unit.

COc1ccc2c(c1NC(=O)CN)CCC=C2c1cc(OC)c(OC)c(OC)c1.Cl [Compound 44]	100

Below: the item to evaluate.
Entry COc1ccc2c(c1NC(=O)CN)CCCC=C2c1cc(OC)c(OC)c(OC)c1.Cl [Compound 45] ; % Cleavage by LAP = 100
